The reader will find reported AUC (h*p/s) values listed item by item below.
# System: mice
# test: Luc expression (bioluminescence, total flux) after intravenous administration to mice
# Format: in vivo
# conditions used: i.v. administration, total Luc flux (Table 3C)
measure name: AUC (h*p/s)

CCCCCCCCCOC(=O)CCCCCCCN(CCCCCCCC(=O)OC(CCCCCCCC)CCCCCCCC)CCN1CCN(C)CC1 : 1.8E+09
CCCCCCCCCOC(=O)CCCCCCCN(CCO)CCCCCCCOP(=O)(OCCCCCCCC)OCCCCCCCC : 9.29E+10
CCCCCC=CCC=CCCCCCCCCC(CCCCCCCCC=CCC=CCCCCC)OC(=O)CCCN(C)C (stereo not drawn) [MC3, reference compound] : 8.24E+10
CCCCCCCCC(CCCCCCCC)OC(=O)CCCCCCCN(CCO)CCCCCC(=O)N(C)CCCCCCCC : 1.04E+09
CCCCCCCCCOC(=O)CCCCCCCN(CCCCCCCC(=O)OC(CCCCCCCC)CCCCCCCC)CCN1CCOCC1 : 2.4E+10
CCCCCCCCC(C)OC(=O)CCCCCCCN(CCO)CCCCCCCOC(=O)C(CCCCCCCC)CCCCCCCC (stereo not drawn) : 1.25E+12
CCCCCCCCC(CCCCCCCC)OC(=O)CCCCCCCN(CCO)CCCCCCCC(=O)OC1CCC(CCCCC)CC1 (stereo not drawn) : 6.76E+11
CCCCCCCCCOC(=O)CCCCCCCN(CCO)CCCCCCCCCC(=O)OC(CCCCCC)CCCCCC : 5.63E+11
CCCCCCCCCOC(=O)CCCCCCCN(CCO)CCCCCCCCCOC(=O)C(CCCCCC)CCCCCCCC (stereo not drawn) : 3.43E+11
CCCCCCCCOP(=O)(OCCCCCCCC)OCCCCCCCN(CCO)CCCCCCCC(=O)OC(C)CCCCCCCC (stereo not drawn) : 1.75E+10
CCCCCCCCC(CCCCCC)C(=O)OCCCCCCCCCN(CCO)CCCCCCCCCOC(=O)C(CCCCCC)CCCCCCCC (stereo not drawn) : 3.62E+11
CCCCCCCCC(CCCCCCCC)OC(=O)CCCCCCCN(CCO)CCCCCCCC(=O)N(C)CCCCCCCC : 8.1E+10

Just for reference, patent US12404232B2 is where these values come from.
